Test: Critical micelle concentration by fluorescence staining with diphenylhexatriene (DPH)
Format: physicochemical
Details: aqueous solution
PROPERTY_NAME: CMC

[[record]]
molecule = "CCCCCCCCCCCCC(CO[C@@H]1OC(CO)[C@@H](O[C@H]2OC(CO)[C@@H](O)C(O)C2O)C(O)C1O)(CO[C@@H]1OC(CO)[C@@H](O[C@H]2OC(CO)[C@@H](O)C(O)C2O)C(O)C1O)Cc1cccc(C[C@](CCCCCCCCCCCC)(CO[C@@H]2OC(CO)[C@@H](O[C@H]3OC(CO)[C@@H](O)C(O)C3O)C(O)C2O)CO[C@@H]2OC(CO)[C@@H](O[C@@H]3OC(CO)[C@@H](O)C(O)C3O)C(O)C2O)c1 (stereo partly drawn)"
observed_value = "~4.0 µM"

[[record]]
molecule = "CCCCCCCCCCCCCCCC[C@@](CO[C@@H]1OC(CO)[C@@H](O[C@H]2OC(CO)[C@@H](O)C(O)C2O)C(O)C1O)(CO[C@@H]1OC(CO)[C@@H](O[C@@H]2OC(CO)[C@@H](O)C(O)C2O)C(O)C1O)Cc1cccc(C[C@](CCCCCCCCCCCCCCCC)(CO[C@@H]2OC(CO)[C@@H](O[C@H]3OC(CO)[C@@H](O)C(O)C3O)C(O)C2O)CO[C@@H]2CC(CO)[C@@H](O[C@H]3OC(CO)[C@@H](O)C(O)C3O)C(O)C2O)c1 (stereo partly drawn)"
observed_value = "~2.0 µM"

[[record]]
molecule = "CCCCCCCCCCCCCCCCC(CO[C@@H]1OC(CO)[C@@H](O[C@@H]2OC(CO)[C@@H](O)C(O)C2O)C(O)C1O)(CO[C@@H]1OC(CO)[C@@H](O[C@@H]2OC(CO)[C@@H](O)C(O)C2O)C(O)C1O)Cc1ccccc1CC(CCCCCCCCCCCCCCCC)(CO[C@@H]1OC(CO)[C@@H](O[C@@H]2OC(CO)[C@@H](O)C(O)C2O)C(O)C1O)CO[C@@H]1OC(CO)[C@@H](O[C@@H]2OC(CO)[C@@H](O)C(O)C2O)C(O)C1O (stereo partly drawn)"
observed_value = "~2.0 µM"

